Data provenance is patent US20090221559A1.

Biological target: HCV NS5B polymerase (His-tagged, C-terminal 21 amino acid deleted NS5B, HC-J4) (Hepatitis C virus genotype 1b, UniProt O92972)
Construct: The cDNA encoding NS5B amino acid 1-570 (HC-J4, genotype 1b); His tag (His6, from pET-21b) (C); made in house; host or cells: E. coli BL21 (DE3)
Sequence (O92972 2417-3000, looked up, stated change not applied): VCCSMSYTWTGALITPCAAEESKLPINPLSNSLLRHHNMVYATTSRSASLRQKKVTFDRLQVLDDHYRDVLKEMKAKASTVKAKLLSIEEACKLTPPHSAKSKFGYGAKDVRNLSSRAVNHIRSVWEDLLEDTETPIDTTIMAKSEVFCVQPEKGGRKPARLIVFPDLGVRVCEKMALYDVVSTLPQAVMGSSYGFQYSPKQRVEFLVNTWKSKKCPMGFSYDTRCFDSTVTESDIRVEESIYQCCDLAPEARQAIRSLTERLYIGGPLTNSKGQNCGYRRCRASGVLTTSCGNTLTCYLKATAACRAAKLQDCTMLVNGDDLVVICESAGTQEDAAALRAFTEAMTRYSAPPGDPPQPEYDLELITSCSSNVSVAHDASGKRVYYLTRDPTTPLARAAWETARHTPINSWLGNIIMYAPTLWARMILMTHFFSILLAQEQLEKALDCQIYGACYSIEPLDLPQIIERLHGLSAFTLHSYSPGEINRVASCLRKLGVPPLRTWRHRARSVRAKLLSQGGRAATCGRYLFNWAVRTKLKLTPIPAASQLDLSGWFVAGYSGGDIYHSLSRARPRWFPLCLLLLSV
Test: NS5b polymerase assay (biochemical RdRp assay, 3H-GTP incorporation, SPA beads)
Parameters: species or system HCV genotype 1b
Settings: NS5B Polymerase Assay IC50 (μM)
observed.property: IC50

Query COc1ccc(C2Nc3ccccc3NC3=C2C(=O)CC(C)(C)C3)cc1COc1ccc(F)cc1F (centres unmarked) [compound 430] yields IC50 of > 33.3 µM

Query Cc1cccc(C2Nc3ccccc3NC3=C2C(=O)CC(c2ccccc2)C3)c1 (centres unmarked) [compound 354] yields IC50 of > 42.7 µM

###

Recorded melting point for the following molecules
Report field: quantity (unit follows the number).

The examples below pair each entry with its known result.
CC1(C)CC(=O)C2=C(C1)Nc1ccccc1N(C(=O)CC(=O)O)C2c1ccc(Cl)cc1Cl (stereo not shown); 200 °C
CC(=O)N1c2ccc(CCCN)cc2NC2=C(C(=O)CC(C)(C)C2)C1c1ccc(Cl)cc1Cl (stereo not shown); 242 °C
CC1(C)CC(=O)C2=C(C1)Nc1c(N)cccc1NC2c1ccc(Cl)cc1Cl (stereo not shown); 248 °C

From here, focus on the item given below.
Query CC(=O)N1c2ccccc2N(Cc2ccccc2)C2=C(C(=O)CC(C)(C)C2)C1c1ccc(Cl)cc1Cl (stereo not shown) yields melting point of 235 °C

###

Recorded pIC50 for the following molecules
Molecular target: HCV NS5B polymerase (His-tagged, C-terminal 21 amino acid deleted NS5B, HC-J4) (Hepatitis C virus genotype 1b, UniProt O92972)
Construct: The cDNA encoding NS5B amino acid 1-570 (HC-J4, genotype 1b); His tag (His6, from pET-21b) (C); made in house; host or cells: E. coli BL21 (DE3)
Assay: NS5b polymerase assay (biochemical RdRp assay, 3H-GTP incorporation, SPA beads)
Design: species or system HCV genotype 1b
Conditions: NS5B Polymerase Assay IC50, 200 nM enzyme, 3H-GTP incorporation, 2 h at 25° C.
pIC50: −log10 of the molar value.

The examples below pair each entry with its known result.
CC(=O)N1c2ccccc2NC2=C(C(=O)CC(c3ccccc3OCc3ccccc3)C2)C1c1cccc(OCc2ccccc2)c1 (single isomer, unassigned); < 4.37
CC1(C)CC(=O)C2=C(C1)Nc1ccccc1N(C(=O)C(F)(F)F)C2c1ccccc1Cl (stereo not shown); < 4.37
COc1cc2c(cc1OC)N(C(C)=O)C(c1ccc(Cl)cc1Cl)C1=C(CC(C)(C)CC1=O)N2 (stereo not shown); < 3.88

Query CC1(C)CC(=O)C2=C(C1)Nc1ccccc1N(C(=O)C(F)(F)F)C2c1ccco1 (stereo not shown) yields pIC50 of < 4.37

Query CC(=O)N1c2ccccc2NC2=C(C(=O)CC(C)(C)C2)[C@@H]1c1ccc(OCc2ccccc2)cc1Cl (single isomer, unassigned) yields pIC50 of 4.08

Query CC(C)CC(=O)N1c2ccccc2NC2=C(C(=O)CC(C)(C)C2)C1c1cccs1 (stereo not shown) yields pIC50 of < 4.37

Query COc1ccc(C2C3=C(CC(C)(C)CC3=O)Nc3ccccc3N2C(C)=O)cc1COc1ccc(F)cc1 (stereo not shown) yields pIC50 of < 4.37

###

Target: HCV NS5B polymerase (His-tagged, C-terminal 21 amino acid deleted NS5B, HC-J4) (Hepatitis C virus genotype 1b, UniProt O92972)
Construct: The cDNA encoding NS5B amino acid 1-570 (HC-J4, genotype 1b); His tag (His6, from pET-21b) (C); made in house; host or cells: E. coli BL21 (DE3)
Experiment: NS5b polymerase assay (biochemical RdRp assay, 3H-GTP incorporation, SPA beads)
Parameters: species or system HCV genotype 1b
Details: NS5B Polymerase Assay IC50, 200 nM enzyme, 3H-GTP incorporation, 2 h at 25° C.
observed.property: IC50

Cc1ccc(C2C3=C(CC(C)(C)CC3=O)Nc3ccccc3N2C(=O)Cc2ccccc2)o1 (stereo not shown); > 33.3 µM
CC(=O)N1c2ccccc2NC2=C(C(=O)CC(C)(C)C2)C1c1cccc([N+](=O)[O-])c1 (stereo not shown); > 42.7 µM
CC(=O)N1c2ccccc2NC2=C(C(=O)CC(C)(C)C2)C1c1ccc(OCc2ccncc2)cc1 (stereo not shown); 23.1 µM
COc1ccc(C2C3=C(CC(C)(C)CC3=O)Nc3ccccc3N2C(=O)c2ccc(Cl)cc2)cc1OC (stereo not shown); > 42.7 µM

Query COc1cccc(C2C3=C(CC(C)(C)CC3=O)Nc3ccccc3N2C(C)=O)c1 (stereo not shown) yields IC50 of > 42.7 µM

Query CCCCC(=O)N1c2ccccc2NC2=C(C(=O)CC(C)(C)C2)C1c1ccc(OC)cc1OC (stereo not shown) yields IC50 of > 42.7 µM

Query COc1ccc(C2C3=C(CC(C)(C)CC3=O)Nc3ccccc3N2C(=O)C(F)(F)F)cc1 (stereo not shown) yields IC50 of > 42.7 µM

Query CCCCC(=O)N1c2ccccc2NC2=C(C(=O)CC(C)(C)C2)C1c1ccc2c(c1)OCO2 (stereo not shown) yields IC50 of > 42.7 µM

Query CC1(C)CC(=O)C2=C(C1)Nc1ccccc1N(C(=O)Cc1ccccc1)C2c1ccc(-c2ccc([N+](=O)[O-])cc2)o1 (stereo not shown) yields IC50 of > 42.7 µM

Query CCC(=O)N1c2ccccc2NC2=C(C(=O)CC(C)(C)C2)C1c1ccc(Cl)cc1 (stereo not shown) yields IC50 of > 42.7 µM

Query CN(C)c1ccc(C2C3=C(CC(C)(C)CC3=O)Nc3ccccc3N2C(=O)Nc2ccc(Cl)c(Cl)c2)cc1 (stereo not shown) yields IC50 of > 33.3 µM

Query COc1ccc(C2C3=C(CC(C)(C)CC3=O)Nc3ccccc3N2C(=O)CC(C)C)c(OC)c1 (stereo not shown) yields IC50 of > 42.6 µM

Query CCOc1ccccc1C1C2=C(CC(C)(C)CC2=O)Nc2ccccc2N1C(C)=O (stereo not shown) yields IC50 of > 42.7 µM

Query CCCCOc1cccc2c1NC1=C(C(=O)CC(C)(C)C1)C(c1ccc(Cl)cc1Cl)N2C(C)=O (stereo not shown) yields IC50 of > 133 µM

Query CCC(=O)N1c2ccccc2NC2=C(C(=O)CC(C)(C)C2)C1c1ccccc1OCc1ccccc1 (stereo not shown) yields IC50 of > 42.7 µM

Query CC(C)CC(=O)N1c2ccccc2NC2=C(C(=O)CC(C)(C)C2)C1c1ccc(Cl)cc1 (stereo not shown) yields IC50 of > 42.7 µM

###

Biological target: HCV NS5B polymerase (His-tagged, C-terminal 21 amino acid deleted NS5B, HC-J4) (Hepatitis C virus genotype 1b)
Construct: The cDNA encoding NS5B amino acid 1-570 (HC-J4, genotype 1b); His tag (His6, from pET-21b) (C); made in house; host or cells: E. coli BL21 (DE3)
Experiment: NS5b polymerase assay (biochemical RdRp assay, 3H-GTP incorporation, SPA beads)
Set-up: species or system HCV genotype 1b
Conditions: NS5B Polymerase Assay IC50, 200 nM enzyme, 3H-GTP incorporation, 2 h at 25° C.
pIC50: −log10 of the molar value.
observed.property: pIC50

The examples below pair each entry with its known result.
CC(=O)N1c2ccccc2NC2=C(C(=O)CC(C)(C)C2)C1c1cc(Cl)cc(Cl)c1 (stereo not drawn) [compound 133]; < 3.88
CCN(CC)c1ccc(C2CC(=O)C3=C(C2)Nc2ccccc2N(C(=O)c2ccccc2)C3c2ccco2)cc1 (stereo not drawn) [compound 295]; < 4.37
COc1ccc(OC)c(C2C3=C(CC(C)(C)CC3=O)Nc3ccccc3N2C(C)=O)c1 (stereo not drawn) [compound 118]; < 4.37
CC(=O)N1c2ccccc2NC2=C(C(=O)CC(C)(C)C2)C1c1ccc(Cl)cc1 (stereo not drawn) [compound 111]; < 4.37
CC1(C)CC(=O)C2=C(C1)Nc1ccccc1N(C(=O)C(F)(F)F)C2/C=C/c1ccccc1 (racemic) [compound 244]; < 4.48
CN(C)c1ccc(C2C3=C(CC(C)(C)CC3=O)Nc3ccccc3N2C(=O)Cc2ccc(Cl)cc2)cc1 (stereo not drawn) [compound 8]; < 4.37
COc1ccccc1C1C2=C(CC(C)(C)CC2=O)Nc2ccccc2N1C(=O)Cc1ccccc1 (stereo not drawn) [compound 81]; < 4.37
CCCCOc1ccc(C2C3=C(CC(C)(C)CC3=O)Nc3ccccc3N2C(=O)C(C)C)cc1 (stereo not drawn) [compound 14]; < 4.48
CC1(C)CC(=O)C2=C(C1)Nc1ccccc1N(C(=O)Cc1ccccc1)C2c1ccc(Cl)cc1 (stereo not drawn) [compound 20]; < 4.37
CC1(C)CC(=O)C2=C(C1)Nc1ccccc1N(C(=O)CCc1ccccc1)C2c1ccc(Cl)cc1Cl (stereo not drawn) [compound 152]; 4.62

Query CC1(C)CC(=O)C2=C(C1)Nc1ccccc1N(C(=O)c1ccccc1)C2c1ccc(Cl)cc1Cl (stereo not drawn) [compound 45] yields pIC50 of 5.32

Query CC(=O)N1c2ccccc2NC2=C(C(=O)CC(C)(C)C2)C1CC1CC=C(C)C1(C)C (stereo not drawn) [compound 246] yields pIC50 of < 4.37

Query CC(=O)N1c2ccccc2NC2=C(C(=O)CC(C)(C)C2)C1c1cccc(Cl)c1 (stereo not drawn) [compound 126] yields pIC50 of < 4.37

Query CC1(C)CC(=O)C2=C(C1)Nc1ccccc1N(C(=O)c1ccccc1)C2c1ccc(-c2cccc([N+](=O)[O-])c2)o1 (stereo not drawn) [compound 272] yields pIC50 of < 4.37

Query CCCCOc1ccc(C2C3=C(CC(C)(C)CC3=O)Nc3ccccc3N2C(=O)c2ccccc2)cc1 (stereo not drawn) [compound 91] yields pIC50 of < 4.37
